Reference for the values: the supplement of paper PMC9170038

Test system: MS2 coat protein
experimentalProtocol: apparent KD of MS2 coat protein; higher = weaker reporter binding
assayConditions: Eterna round: R107; input ligand: arginine 13.2 mM
What apparent KD of MS2 coat protein was measured for each of the following?
Give bare numbers, in nM.

Example cases with answers are listed next.
{"constructSequence": "GAGAGAGGAGUGCGGCGUGUUCCGCUCCGUCGAGGACCGGUACGGCCGCCACUCGACAUGAGGAUCACCCAUGUCCUCUCUCGCG [#1 Exclusion - Tryptophan A Attempt #4 (HarryS)]", "studySystem": "MS2 coat protein", "unitTag": "nM", "measValue": 16.8}
{"constructSequence": "GGGUACAUCGCGGCCGCCACUCAUGUAAAUACCUGAGGAUCACCCUGGUCGAUGGAGACAUCGAAGAGGACCGGGUGAUGUACCG", "studySystem": "MS2 coat protein", "unitTag": "nM", "measValue": 91.2}

Consider now this further sequence.
So for AAACAUUGCUCAGAUACCAGACAUGAGGAUCACCCAUGUACCGAGGUACCCGAAAGGAAUGUCCCUUGGCAGCUGAGCAAUGAAA [MAT - Exclusion Theophlline B - Mod of Eli - D22] , the logged apparent KD of MS2 coat protein turned out to be 14.2

====

Test system: MS2 coat protein
experimentalProtocol: apparent KD of MS2 coat protein; higher = weaker reporter binding
assayConditions: Eterna round: R107; input ligand: theophylline 2 mM
Outcome: true (1) for apparent KD of MS2 coat protein of at least 100 nM; false (0) for anything lower.

Worked cases, answers included:
{"constructSequence": "GUUAUAUACUCGGCCGCCACUGAGAGAGUCAUGUAAACAUGAGGAUCACCCAUGUAAUAUAUAUACAGGACCGGGAGUAUAGUAA [4.D]", "class": "false (0)"}
{"constructSequence": "ACGAUAGGACCUGAGGAACACCCAGGUGAUACCAGCCUGGAAACAGGCCCUUGGCAGCACCAAUACUCCAAUAACCUAUCGAAUA [TheoAX 12 #MicroSwitchBubble #AlternativeMS2]", "class": "true (1)"}
{"constructSequence": "AAACAGUCGGACAUGAGGAUCACCCAUGUGCGAGGACCGGUACGGCCGCCACUCGACAAGGGCGGUCCCGAAGCAAACAUACGCG [Enedquceor]", "class": "false (0)"}
{"constructSequence": "UUUUUCGCGGGUGAUACCAGCAGAGUUGUACUGGUCUGGUACAUGAGGAUCACCCAUGUUUGCCCUUGGCAGCGCUCGGGAGAAG [#23 Exclusion-TheophyllineB]", "class": "false (0)"}
{"constructSequence": "ACGAUAGCACAAGAGGAUCACCCUUGUGAUACCAGCCUGGAAACAGGCCCUUGGCAGCACACAAAUAAAUUGUAACUAUCGAAUA [TheoAX5 #MicroSwitchBubble #AlternativeMS2]", "class": "true (1)"}

Please look at the following sequence next.
query: Hello, I need to know if GGCUGCGAUGGCGGAAAUUAUUUACAUAGGCGAGGACCGGUACGGCCGCCACUCGAACGUACAUGAGGAUCACCCAUGUGAUAAU [theeternabot_sameState_MS2_Trp_A_1] has measured apparent KD of MS2 coat protein not below 100 nM. Thanks!
result: false (0)

====

Tested on: K4 kissing-loop RNA reporter;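 further: bound reporter read as fluorescence of individual clusters on recovered sequencing chips by microscopy, with normalized cluster intensities fitted with a binding model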
experimentalProtocol: apparent KD of K4 kissing-loop reporter; higher = weaker reporter binding
assayConditions: Eterna round: R107; input ligand: FMN 200 uM
recordedMetric: apparent KD of K4 kissing-loop reporter (nM)
Numbers only, in nM.

Example cases with answers are listed next.
{"constructSequence": "GGUAGCAUGGCGGCCGCCACUUUAUACUCGGUCGUUGGCGUCGUAAGUGAUGUUUACAUUCGCAAAAGGACCGGGCCAUGCUACC", "measValue": 97.8}
{"constructSequence": "GCAGUGAUGUUGCACGAGUAGGCUGGAGUACGAGGACCGGUACGGCCGCCACUCGUACGAUAGUCGCUAAUUUAUGGAAUGGUGA [#08 K4 Tryptophan A Same State]", "measValue": 458}
{"constructSequence": "UUAGAGAUCUCAGGAUAUCAGUGAUGUUGAGAUUCAGAUCUGAGAUAGAAUUCUAUCUCAGAUCAAUGAGAAGGGAGAUCUCAUU [AK4.4 Exc FMN B]", "measValue": 463}
{"constructSequence": "UUUAACGAGUGAUGUUCGAAAAGUAAUAGUUAGGAUAUCGUUUUUUCGAGAAGGAACUUCGAAGUGAUACGAAAGUAUCGCUUCG [FMN A 1]", "measValue": 180}
{"constructSequence": "AGGAUCCGUCGACAAAAGUCGACAUAAACCGAGGAUAUGACGAAAGUCAGAAGGUGGUCAUAAGACCAGUGAUGUUGGUGGAUCC [FmnA 14 #SwitchBubble #K4Late]", "measValue": 1250}

So for UUUGGUUUCUCGGCCGCCACUCGUUGUCUAUCGGCUUCAGGGAUAUAGUGAUGUUAUGUAUAGAAGAGGACCGGGAGAAGGUUCC [ExTryptoB.Dy] , the logged apparent KD of K4 kissing-loop reporter turned out to be 217

====

Test system: MS2 coat protein
experimentalProtocol: apparent KD of MS2 coat protein; designed switch direction (-1 OFF switch, 1 ON switch): -1; higher = weaker reporter binding
assayConditions: input ligand: none
recordedMetric: apparent KD of MS2 coat protein (nM)
Give bare numbers, in nM.

{"constructSequence": "ACAAGCUUUUAGAUUCUUAACAUGAGGAUCACCCAUGUGCUCGUCUUAUUGGCCGGCGGGCCGCCGGAAAAGCUUGU (Eterna round: R97, puzzle: Sensor, turn-off variant 1)", "unitTag": "nM", "measValue": 408}
{"constructSequence": "CAGUACUGAGGAUAUACAUGAGGAUCACCCAUGUGUGUGAGAUUUGGAUGAAAGUUAUGUAGAAGGCGGUGCUG [JR_Ex3_Sub037] (Eterna round: R97, puzzle: Exclusion 3)", "unitTag": "nM", "measValue": 73.8}
{"constructSequence": "CCGGCUGCUGUGAGGAUAUGCCUGUGGGCCCGCGGGCAGAAGGCACAUGAGGAUCACCCAUGUCCUGCGGUCCC [salish99_bmx4_r4_117] (Eterna round: R97, puzzle: Brourd's mod of Exclusion 4)", "unitTag": "nM", "measValue": 33.5}
{"constructSequence": "CAAUAUUACUGAGGAUAUCCUAGUGUAUUUCAGGGAGAAGGCGGACUCAACAUGAGGAUCACCCAUGUAAGACGGGUACUAGAU [Ex NG1 #17] (Eterna round: R96, puzzle: Exclusion NG 1)", "unitTag": "nM", "measValue": 81.4}

So for UAACCCGCGCGAGGAUAUCACAUGAGGAUCACCCAUGUGGCACUCCGUCACCGGGCAGUCCCGAGUGAGAAGGUGCAGGCGGGA [Bireisen] (Eterna round: R96, puzzle: Exclusion NG 2) , the logged apparent KD of MS2 coat protein turned out to be 26

====

Tested on: MS2 coat protein
experimentalProtocol: apparent KD of MS2 coat protein; designed switch direction (-1 OFF switch, 1 ON switch): -1; higher = weaker reporter binding
assayConditions: input ligand: FMN 200 uM
What apparent KD of MS2 coat protein was measured for each of the following?
Lab note: write values as number then unit, every time.

Example cases with answers are listed next.
{"constructSequence": "CGUAAGCUAGGAUAUGCUUUGGGAAAGCAUUCCUUCGAUAAACUUGAGGAUCACCCAAGUAGAAGGAGCUUACG [salish99_ex2_r4_010] (Eterna round: R97, puzzle: Exclusion 2)", "studySystem": "MS2 coat protein", "measValue": "24.8 nM"}
{"constructSequence": "UGUUCGGUAGGAUAUACAUCGCUGAAGUGGCGGUGACUUCAACAUGAGGAUCACCCAUGUAGAAGGGCCGGCUC [EX2 C.4] (Eterna round: R97, puzzle: Exclusion 2)", "studySystem": "MS2 coat protein", "measValue": "17.3 nM"}

Consider now this further sequence.
So for AACCUCGUAGCAGGAUAUUAGAGCUCCCGCAAAUGAGAAGGGCUACGAAACACUUGAGGAUCACCCAAGUACCGUGGUCCUCUA [Mutated MS2 EX1.8] (Eterna round: R96, puzzle: Exclusion NG 1) , the logged apparent KD of MS2 coat protein turned out to be 12.7 nM
